Test system: microorganisms
assay protocol: Peptide activities: targeting/binding, antimicrobial, growth or phenotype altering (Tables 7, 8)
Format: cell-based
protocol conditions: peptides having multiple activities

>  <substance>
PF-363: peptide having multiple activities (chain 1 SMLSVTVMCLMHASVAANQAMEKKV; chain 2 SMLSVTVMCLMHASVAANQAMEKKV; Peptide with targeting and/or antimicrobial activity)

>  <Activities>
G B

$$$$
>  <substance>
PF-024: peptide having multiple activities (DLRKAK; Peptide with targeting and/or antimicrobial activity)

>  <Activities>
G B

$$$$
>  <substance>
PF-639: peptide having multiple activities (chain 1 QATQIKSWIDRLLVSED; chain 2 QATQIKSWIDRLLVSED; Peptide with targeting and/or antimicrobial activity)

>  <Activities>
G B

$$$$
>  <substance>
PF-042: peptide having multiple activities (LLLSYFRYTGALLQSLF; Peptide with targeting and/or antimicrobial activity)

>  <Activities>
G B

$$$$
>  <substance>
KNKKQTDILEKVKEILDKKKKTKSVGQKLY [PF-538]

>  <Activities>
G M

$$$$
>  <substance>
PF-546: peptide having multiple activities (PIIAPTIKTQIQ; Peptide with targeting and/or antimicrobial activity)

>  <Activities>
G B

$$$$

---

System: microorganisms
assay protocol: Morphology, biofilm and growth disrupting peptides (Table 5)
Assay type: cell-based
Design: key: A: Peptide aggregates; B: Less hyphal formation; Clumps; Diffuse clumps and small polyps; F: Diffuse growth; H: Thin; I: Growth inhibition; Microcolony formation; Rippled; Small polyps; Thick; W: Halo formation on top, microlonies on bottom
protocol conditions: S. pneumoniae
Ends that are not written are not given here.

>  <substance>
SLQSQLGPCLHDQRH [PF-448]

>  <Organism, effect>
S. pneumoniae (I)

$$$$
>  <substance>
PF-556: peptide having multiple activities (SLQIRMNTLTAAKASIEAA; Peptide with targeting and/or antimicrobial activity)

>  <Organism, effect>
S. pneumoniae (D)

$$$$
>  <substance>
PF-677 (TCRGAGMH; Peptide with targeting and/or antimicrobial activity)

>  <Organism, effect>
S. pneumoniae (D)

$$$$
>  <substance>
PF-430: peptide having multiple activities (chain 1 AVVCGYLAYTATS; chain 2 AVVCGYLAYTATS; Peptide with targeting and/or antimicrobial activity)

>  <Organism, effect>
S. pneumoniae (M)

$$$$
>  <substance>
PF-665 (chain 1 VLRVATAVGEVPTGL; chain 2 VLRVATAVGEVPTGL; Peptide with targeting and/or antimicrobial activity)

>  <Organism, effect>
S. pneumoniae (H)

$$$$
>  <substance>
PF-584: peptide having multiple activities (chain 1 SYIKNLSNQKFLIAF; chain 2 SYIKNLSNQKFLIAF; Peptide with targeting and/or antimicrobial activity)

>  <Organism, effect>
S. pneumoniae (D)

$$$$
>  <substance>
PF-449 (MPTTKSKQKGWTNTKKASNTQ; Peptide with targeting and/or antimicrobial activity)

>  <Organism, effect>
S. pneumoniae (H)

$$$$
>  <substance>
PF-546: peptide having multiple activities (PIIAPTIKTQIQ; Peptide with targeting and/or antimicrobial activity)

>  <Organism, effect>
S. pneumoniae (D)

$$$$
>  <substance>
HKNKLNIPHIKS [PF-477]

>  <Organism, effect>
S. pneumoniae (H)

$$$$
>  <substance>
PF-596: peptide having multiple activities (chain 1 SKMWDKILTILILILELIRELIKL; chain 2 SKMWDKILTILILILELIRELIKL; Peptide with targeting and/or antimicrobial activity)

>  <Organism, effect>
S. pneumoniae (D)

$$$$
>  <substance>
PF-687 (AKRVLSLAVAPHRRQPVQGT; Peptide with targeting and/or antimicrobial activity)

>  <Organism, effect>
S. pneumoniae (A)

$$$$
>  <substance>
PF-427: peptide having multiple activities (chain 1 YVLEYHGLRATQDVDAFMAL; chain 2 YVLEYHGLRATQDVDAFMAL; Peptide with targeting and/or antimicrobial activity)

>  <Organism, effect>
S. pneumoniae (R)

$$$$
>  <substance>
PF-535 (NIKTRKRALKIIKQHQRSK; Peptide with targeting and/or antimicrobial activity)

>  <Organism, effect>
S. pneumoniae (H)

$$$$
>  <substance>
PF-690 (MIPLAGDPVSSHRTVEFGVLGTYLVSGGSL; Peptide with targeting and/or antimicrobial activity)

>  <Organism, effect>
S. pneumoniae (M)

$$$$
>  <substance>
PF-424: peptide having multiple activities (chain 1 IAAFVTSRAFSDTVSPI; chain 2 IAAFVTSRAFSDTVSPI; Peptide with targeting and/or antimicrobial activity)

>  <Organism, effect>
S. pneumoniae (H)

$$$$
>  <substance>
PF-698 (SSGRAGVKCRRPTGR; Peptide with targeting and/or antimicrobial activity)

>  <Organism, effect>
S. pneumoniae (A)

$$$$
>  <substance>
PDAPRTCYHKPILAALSRIVVTDR [PF-524]

>  <Organism, effect>
S. pneumoniae (M)

$$$$
>  <substance>
KNKKQTDILEKVKEILDKKKKTKSVGQKLY [PF-538]

>  <Organism, effect>
S. pneumoniae (H)

$$$$
>  <substance>
CGKLLEQKNFFLKTR [PF-521]

>  <Organism, effect>
S. pneumoniae (H)

$$$$
>  <substance>
SKFKVLRKIIIKEYKGELMLSIQKQR [PF-530]

>  <Organism, effect>
S. pneumoniae (R)

$$$$
>  <substance>
FQKPFTGEEVEDFQDDDEIPTII [PF-437]

>  <Organism, effect>
S. pneumoniae (I)

$$$$
>  <substance>
PF-479: peptide having multiple activities (AYILKRREEKNK; Peptide with targeting and/or antimicrobial activity)

>  <Organism, effect>
S. pneumoniae (C)

$$$$
>  <substance>
PF-651 (chain 1 PRWPTGAGRHR; chain 2 PRWPTGAGRHR; Peptide with targeting and/or antimicrobial activity)

>  <Organism, effect>
S. pneumoniae (H)

$$$$
>  <substance>
PF-429: peptide having multiple activities (chain 1 AATLICVGSGIMSSL; chain 2 AATLICVGSGIMSSL; Peptide with targeting and/or antimicrobial activity)

>  <Organism, effect>
S. pneumoniae (M)

$$$$
>  <substance>
PF-637: peptide having multiple activities (chain 1 SRIKQDARSVRKYDRIGIFFYSFKSA; chain 2 SRIKQDARSVRKYDRIGIFFYSFKSA; Peptide with targeting and/or antimicrobial activity)

>  <Organism, effect>
S. pneumoniae (M)

$$$$
>  <substance>
YIQFHLNQQPRPKVKKIKIFL-NH2 [PF-531]

>  <Organism, effect>
S. pneumoniae (C)

$$$$
>  <substance>
TKKIELKRFVDAFVKKSYENYILERELKKLIKAINEELPTK [PF-600]

>  <Organism, effect>
S. pneumoniae (R)

$$$$

---

Test system: microorganisms
assay protocol: Targeting peptide binding to target microorganisms (Tables 3, 10, 12)
protocol conditions: microorganism(s) the targeting peptide binds; binding in aqueous buffers that varied with peptide solubility, preferably 1x PBS
recorded endpoint: Target(s)

>  <substance>
1T-215 (VCFKDISVFLSPFRGQEVLFCGKAKHSLIYVIGT; Peptide with targeting and/or antimicrobial activity)

>  <result>
S. sanguinis

$$$$
>  <substance>
1T-256 (KGKSLMPLLKQINQWGKLYL; Peptide with targeting and/or antimicrobial activity)

>  <result>
S. sanguinis

$$$$
>  <substance>
1T-188 (HRKDVYKK; Peptide with targeting and/or antimicrobial activity)

>  <result>
S. sanguinis

$$$$
>  <substance>
PF-041: peptide having multiple activities (ELLVILPGFI; Peptide with targeting and/or antimicrobial activity)

>  <result>
MRSA

$$$$
>  <substance>
1T-237 (EDPVPNHFTLRRNKKEKPSKS; Peptide with targeting and/or antimicrobial activity)

>  <result>
S. sanguinis

$$$$
>  <substance>
1T-193 (LMIFDKHANLKYKYGNRSFGVEAIM; Peptide with targeting and/or antimicrobial activity)

>  <result>
S. sanguinis

$$$$
>  <substance>
1T-286 (LGFFNNKADLVKADTERDNRMSSLKIKDL; Peptide with targeting and/or antimicrobial activity)

>  <result>
S. sanguinis

$$$$
>  <substance>
1T-216 (FFLNVIAIRIPHF; Peptide with targeting and/or antimicrobial activity)

>  <result>
S. sanguinis

$$$$
>  <substance>
1T-264 (LEGKFYMAEDFDKTPECFKDYV; Peptide with targeting and/or antimicrobial activity)

>  <result>
S. sanguinis

$$$$

---

Tested on: microorganisms
assay protocol: Peptide activities: targeting/binding, antimicrobial, growth or phenotype altering (Tables 7, 8)
Type: cell-based
protocol conditions: peptides having multiple activities
recorded endpoint: Activities

>  <substance>
VLPFPAIPLSRRRACVAAPRPRSRQRAS [PF-168]

>  <recorded endpoint>
Activities

>  <result>
G B M

$$$$
>  <substance>
NYAVVSHT [PF-209]

>  <recorded endpoint>
Activities

>  <result>
G B M

$$$$
>  <substance>
PF-439: peptide having multiple activities (chain 1 RVLVLKKFHGIMDGNRNVAVFFVGQ; chain 2 RVLVLKKFHGIMDGNRNVAVFFVGQ; Peptide with targeting and/or antimicrobial activity)

>  <recorded endpoint>
Activities

>  <result>
G B

$$$$
>  <substance>
PF-537: peptide having multiple activities (LANDYYKKTKKSW; Peptide with targeting and/or antimicrobial activity)

>  <recorded endpoint>
Activities

>  <result>
G B

$$$$
>  <substance>
HKNKLNIPHIKS [PF-477]

>  <recorded endpoint>
Activities

>  <result>
G B

$$$$

All figures here come from patent US20110039763A1.
